# TARGET_ENTITY: human GLP-1 receptor (human, UniProt P43220 24-463, limits assumed)
# TEST: cell-based or functional assay
Numbered stars: 1 amine (or outer) side, 2 acyl side, 3 side chain; on linkers, the order of the positions; unused ones are H or OH. Side chains are listed from the residue outwards. Ends that are not written are not given here. * marks the point of attachment. γGlu = O=C(O)[C@H](CCC(=O)[*:2])N[*:1]; Palmitoyl = CCCCCCCCCCCCCCCC(=O)*
Would you mind labelling by GLP-1R, EC50? At or over 0.3 nM is criterion met, under is criterion not met.

Would you please look over these solved cases?
INPUT: Could you tell me if the measured GLP-1R, EC50 of HGDGSFTSELSTYLDAK([γGlu-Palmitoyl])AARDFIAWLIQTKITD [SEQ ID NO 25] reaches 0.3 nM or more?
OUTPUT: criterion met

INPUT: Confirm if GLP-1R, EC50 reported for the binder HGDGSFTSELSTYK([γGlu-Palmitoyl])DALAARDFIAWLIQTKITD [SEQ ID NO 23] is 0.3 nM or above.
OUTPUT: criterion not met

INPUT: Hi, just wondering whether HAEGTFTSDVSSYLEGQAAKEFIAWLVKG (ligand, ends and bridges not checked) [native human GLP-1] shows GLP-1R, EC50 of 0.3 nM or higher.
OUTPUT: criterion not met

***
INPUT: Quick check: does HGDGSFTSELK([γGlu-Palmitoyl])TYLDALAARDFIAWLIQTKITD [SEQ ID NO 21] have GLP-1R, EC50 greater than or equal to 0.3 nM?
OUTPUT: criterion met

INPUT: Can HGDGSFK([γGlu-Palmitoyl])SELSTYLDALAARDFIAWLIQTKITD [SEQ ID NO 19] be said to have GLP-1R, EC50 at or above 0.3 nM?
OUTPUT: criterion met

INPUT: Kindly determine if GLP-1R, EC50 recorded for HGDGSFTSELSTYLDALAAK([γGlu-Palmitoyl])DFIAWLIQTKITD [SEQ ID NO 26] is above or exactly 0.3 nM.
OUTPUT: criterion met

INPUT: Reported GLP-1R, EC50 at or above 0.3 nM? HGDGSFTSELSK([γGlu-Palmitoyl])YLDALAARDFIAWLIQTKITD [SEQ ID NO 22]
OUTPUT: criterion met

INPUT: Does the reported GLP-1R, EC50 for HGDGSFTSELSTYLDK([γGlu-Palmitoyl])LAARDFIAWLIQTKITD [SEQ ID NO 24] fall at or above the 0.3 nM mark?
OUTPUT: criterion met
